B1: TRIM9 (parent)
chain: CVQCKMPVCYQCLEEGKHSSHEVK

- Variants of: B1
- assay_method_text: protein stability index of a GFP-peptide fusion (GPS, HEK-293T) (PSI 1-6); higher = more stable;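 further: lentivirally expressed fusions sorted by FACS into six bins by GFP to DsRed ratio, PSI derived from sequencing read proportions per bin multiplied by bin number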
- applied_conditions: c terminus: a fixed tail appended
assay_endpoint: protein stability index

Field: example entries. Status: answers known.
| alteration | assay_endpoint | readout_value |
| --- | --- | --- |
| M6H | protein stability index | 4.3 |
| C4E | protein stability index | 3.38 |
| C9R | protein stability index | 3.31 |
| E22M | protein stability index | 3.65 |
| V23S | protein stability index | 3.37 |
| K5W | protein stability index | 3.03 |
| C9Q | protein stability index | 4.09 |
| K5S | protein stability index | 3.9 |
| E15A | protein stability index | 4.08 |
| L13V | protein stability index | 4.45 |

Sample E15C ; protein stability index observed: 4.14

For reference, reported protein stability index for Q11I stands at 3.4

Given item K17F , the value recorded as its protein stability index is 3.1
